test: Toxicity in oral dosed rat assessed as median lethal dose; assay type: organism-based; conditions: in vivo
readout: LD50

{"smiles_string": "C=C1CC/C=C(/C)CC[C@@H]2[C@@H]1CC2(C)C", "readout": "LD50", "data_value": "> 5000 mg/kg"}

* * *

test: Toxicity in rat assessed as median lethal dose; settings: in vivo

{"compound": "CC(C)[C@]12O[C@H]1[C@@H]1O[C@@]13[C@@]1(C)CCC4=C(COC4=O)[C@@H]1C[C@@H]1O[C@@]13C2=O [TRIPTONIDE]", "LD50 / mg/kg": 980}

* * *

experiment: Toxicity in mouse assessed as median lethal dose; settings: in vivo
readout: LD50

{"molecule": "CC(C)[C@]12O[C@H]1[C@@H]1O[C@@]13[C@@]1(C)CCC4=C(COC4=O)[C@@H]1C[C@@H]1O[C@@]13C2=O [TRIPTONIDE]", "readout": "LD50", "data_value": "300 mg/kg"}
